Hello, the source for this data is patent US8129361B2, in case you need it.

Tested on: peripheral blood lymphocyte number
Protocol Text: Peripheral blood lymphocyte number decreasing action in mouse
Assay type: in vivo
Run Parameters: ip, male BALB/cAnNCrj mice, intraperitoneal, 24 hr after administration, read-out: ED50 (dose necessary for reducing the lymphocyte count of the vehicle group (100%) by 50%)
Cut-off 0.06 mg/kg on ED50: below means TRUE, at or above means FALSE.

| Compound | Class |
| --- | --- |
| Cl.NC(/C=C/c1ccc(OCCCc2ccccc2)c(C(F)(F)F)c1)(CO)CO [Compound 100-2] | FALSE |
| Cl.NC(CO)(CO)CCc1ccc(OC/C=C/c2cccc(Cl)c2)c(C(F)(F)F)c1 [Compound 89-2] | TRUE |
| Cl.NC(CO)(CO)CCc1ccc(OCCCc2ccc(OC(F)(F)F)cc2)c(C(F)(F)F)c1 [Compound 52-5] | FALSE |
| Cl.NC(CO)(CO)CCc1ccc(OCCCc2cccc(C(F)(F)F)c2)c(C(F)(F)F)c1 [Compound 12-4] | TRUE |
| Cl.NC(/C=C/c1ccc(OCCCc2ccccc2F)c(C(F)(F)F)c1)(CO)CO [Compound 101-2] | FALSE |
| CC[C@](N)(CO)CCc1ccc(OCCCc2ccc(Cl)c(Cl)c2)c(C(F)(F)F)c1.Cl [Compound 206-3] | TRUE |

Lookup: Find out if reported ED50 for Cl.NC(CO)(CO)CCc1ccc(OCCCc2ccc(Cl)c(Cl)c2)c(C(F)(F)F)c1 [Compound 38-5] is less than 0.06 mg/kg
Found: FALSE

Lookup: Find out if reported ED50 for Cc1cccc(CCCOc2ccc(CCC(N)(CO)CO)cc2C(F)(F)F)c1.Cl [Compound 15-4] is less than 0.06 mg/kg
Found: TRUE

Lookup: Find out if reported ED50 for Cl.NC(CO)(CO)CCc1ccc(OCCCc2ccc(C(F)(F)F)c(F)c2)c(C(F)(F)F)c1 [Compound 68-4] is less than 0.06 mg/kg
Found: TRUE

Lookup: Find out if reported ED50 for C[C@](N)(CO)CCc1ccc(OCCCc2ccc(Cl)c(Cl)c2)c(C(F)(F)F)c1.Cl [Compound 204-1] is less than 0.06 mg/kg
Found: TRUE
